test_protocol: in vivo
condition_label: mouse, oral, mice, 7 days observation
recorded_endpoint: LD50 at 168 h (mg/kg)

[[record]]
smiles_code = "CCN1CCCC[C@@H](NC(=O)c2cc3nnn(C)c3cc2OC)C1"
recorded_endpoint = "LD50 at 168 h"
measured_result = 688

[[record]]
smiles_code = "CCN1CCCC[C@@H](NC(=O)c2cc3nn[nH]c3cc2OC)C1"
recorded_endpoint = "LD50 at 168 h"
measured_result = 945


Ref: patent US5932568A
